Settings: PAMPA
Where a SMILES comes first, the peptide text is derived from it. [ ]: non-standard residue; d: D form. dNMeF = CN[C@H](Cc1ccccc1)C(=O)O; NMeL = CN[C@@H](CC(C)C)C(=O)O; dNMeL = CN[C@H](CC(C)C)C(=O)O; NMeA = CN[C@@H](C)C(=O)O
Quantity measured: PAMPA_Papp_Avg

[
  {
    "Molecule": "CC(C)C[C@@H]1NC(=O)[C@H](CC(C)C)NC(=O)[C@H](C(C)C)NC(=O)[C@H](C)NC(=O)[C@@H]2CCCN2C(=O)[C@H]2CCCN2C(=O)[C@@H]2CCCN2C(=O)[C@H](C)N(C)C(=O)[C@@H](CC(C)C)N(C)C(=O)[C@@H]2CCCN2C(=O)[C@H](Cc2ccccc2)NC1=O [Design D11.7] (cyclo(AVLLFP[dNMeL][NMeA]P[dP]P))",
    "Result": "BQL"
  },
  {
    "Molecule": "CC(C)C[C@@H]1NC(=O)[C@@H]2CCCN2C(=O)[C@H]2CCCN2C(=O)[C@@H](CC(C)C)N(C)C(=O)[C@@H](Cc2ccccc2)N(C)C(=O)[C@@H](CC(C)C)NC(=O)[C@@H](CC(C)C)N(C)C(=O)[C@@H]2CCCN2C(=O)[C@H](CC(C)C)N(C)C(=O)[C@H](CC(C)C)N(C)C1=O [Design D10.23] (cyclo(L[NMeL][NMeL]P[dNMeL][dL][dNMeF][dNMeL][dP]P))",
    "Result": "BQL"
  },
  {
    "Molecule": "CC[C@@H](C)[C@H]1NC(=O)[C@@H](CC(C)C)NC(=O)[C@@H](CC(C)C)N(C)C(=O)[C@@H]2CCCN2C(=O)[C@@H](C(C)C)NC(=O)[C@@H](CC(C)C)NC(=O)[C@@H](CC(C)C)N(C)C(=O)[C@@H]2CCCN2C1=O [Design D8.3.p2, DLEU DVAL PRO *DLEU DLEU DILE PRO *DLEU] (cyclo(P[dNMeL][dL][dI]P[dNMeL][dL][dV]))",
    "Result": "BQL"
  }
]

====

Conditions: PAMPA
Where a SMILES comes first, the peptide text is derived from it. [ ]: non-standard residue; d: D form. dNMeL = CN[C@H](CC(C)C)C(=O)O; NMeA = CN[C@@H](C)C(=O)O; dNMeA = CN[C@H](C)C(=O)O

[
  {
    "Compound": "CC[C@H](C)[C@@H]1NC(=O)[C@H]2CCCN2C(=O)[C@@H]2CCCN2C(=O)[C@@H](C(C)C)NC(=O)[C@@H](C)N(C)C(=O)[C@H](C)N(C)C(=O)[C@@H](CC(C)C)N(C)C(=O)[C@@H](C(C)C)NC1=O [Design D8.26, DVAL *DLEU *ALA *DALA DVAL PRO DPRO ILE] (cyclo(I[dV][dNMeL][NMeA][dNMeA][dV]P[dP]))",
    "PAMPA_R1": "1.58E-07"
  }
]

====

Details: PAMPA
Where a SMILES comes first, the peptide text is derived from it. [ ]: non-standard residue; d: D form. NMeL = CN[C@@H](CC(C)C)C(=O)O; dNMeL = CN[C@H](CC(C)C)C(=O)O; NMeA = CN[C@@H](C)C(=O)O; dNMeA = CN[C@H](C)C(=O)O
Quantity measured: PAMPA_R3

[
  {
    "Compound": "CC[C@@H](C)[C@H]1NC(=O)[C@H](C)N(C)C(=O)[C@H]([C@@H](C)CC)NC(=O)[C@H]2CCCN2C(=O)[C@H](CC(C)C)N(C)C(=O)[C@@H](C(C)C)NC(=O)[C@H](C)N(C)C(=O)[C@H]([C@@H](C)CC)NC(=O)[C@@H](CC(C)C)NC(=O)[C@@H]2CCCN2C(=O)[C@H]2CCCN2C1=O [Design D11.10] (cyclo([dL]I[NMeA][dV][NMeL][dP]I[NMeA][dI][dP]P))",
    "Number": "3.23E-06"
  },
  {
    "Compound": "CC[C@@H](C)[C@H]1NC(=O)[C@@H](Cc2ccccc2)NC(=O)[C@H](CC(C)C)NC(=O)[C@@H](C)N(C)C(=O)[C@@H](CC(C)C)NC(=O)[C@H](CC(C)C)NC(=O)[C@H]2CCCN2C(=O)[C@@H]2CCCN2C(=O)[C@@H](C)NC(=O)[C@H]2CCCN2C1=O [Design D10.37] (cyclo(L[dF][dI][dP][dA]P[dP]L[dL][dNMeA]))",
    "Number": "6.36E-07"
  },
  {
    "Compound": "CC[C@@H](C)[C@H]1NC(=O)[C@H](C)NC(=O)[C@@H](CC(C)C)N(C)C(=O)[C@H](CC(C)C)N(C)C(=O)[C@H](C(C)C)NC(=O)[C@@H]2CCCN2C(=O)[C@@H](CC(C)C)N(C)C(=O)[C@@H](C)N(C)C(=O)[C@@H](Cc2ccccc2)NC(=O)[C@@H]2CCCN2C(=O)[C@H]2CCCN2C1=O [Design D11.6] (cyclo([dF][dNMeA][dNMeL]PV[NMeL][dNMeL]A[dI][dP]P))",
    "Number": "7.58E-07"
  }
]
